Could you please report measured total protein half-life in vivo for the items listed next?
Test: total protein half-life in vivo (active degradation + dilution); higher = more stable protein
Details: E. coli NCM3722 delta-lon; growth: N-lim chemostat; doubling time 6 h
Give bare numbers, in h.

See these solved cases before continuing.
Q: GET /values?readout=total protein half-life in vivo&item= `MHGNSEMQKINQTSAMPEKTDVHWSGRFSVAPMLDWTDRHCRYFLRLLSRNTLLYTEMVTTGAIIHGKGDYLAYSEEEHPVALQLGGSDPAALAQCAKLAEARGYDEINLNVGCPSDRVQNGMFGACLMGNAQLVADCVKAMRDVVSIPVTVKTRIGIDDQDSYEFLCDFINTVSGKGECEMFIIHARKAWLSGLSPKENREIPPLDYPRVYQLKRDFPHLTMSINGGIKSLEEAKAHLQHMDGVMVGREAYQNPGILAAVDREIFGSSDTDADPVAVVRAMYPYIERELSQGTYLGHITRHMLGLFQGIPGARQWRRYLSENAHKAGADINVLEHALKLVADKR`
Result: 4.31

Q: Queued: MAEAQNDPLLPGYSFNAHLVAGLTPIEANGYLDFFIDRPLGMKGYILNLTIRGQGVVKNQGREFVCRPGDILLFPPGEIHHYGRHPEAREWYHQWVYFRPRAYWHEWLNWPSIFANTGFFRPDEAHQPHFSDLFGQIINAGQGEGRYSELLAINLLEQLLLRRMEAINESLHPPMDNRVREACQYISDHLADSNFDIASVAQHVCLSPSRLSHLFRQQLGISVLSWREDQRISQAKLLLSTTRMPIATVGRNVGFDDQLYFSRVFKKCTGASPSEFRAGCEEKVNDVAVKLS [P0A9E0]
Result: 1.26

Now consider a different sequence.
Q: GET /values?readout=total protein half-life in vivo&item= `MQNRLTIKDIARLSGVGKSTVSRVLNNESGVSQLTRERVEAVMNQHGFSPSRSARAMRGQSDKVVAIIVTRLDSLSENLAVQTMLPAFYEQGYDPIMMESQFSPQLVAEHLGVLKRRNIDGVVLFGFTGITEEMLAHWQSSLVLLARDAKGFASVCYDDEGAIKILMQRLYDQGHRNISYLGVPHSDVTTGKRRHEAYLAFCKAHKLHPVAALPGLAMKQGYENVAKVITPETTALLCATDTLALGASKYLQEQRIDTLQLASVGNTPLMKFLHPEIVTVDPGYAEAGRQAACQLIAQVTGRSEPQQIIIPATLS`
Result: 5.53

====

Assay: total protein half-life in vivo (active degradation + dilution); higher = more stable protein
Details: E. coli NCM3722 delta-clpP; growth: N-lim chemostat; doubling time 6 h
endpoint_label: total protein half-life in vivo (h)
One number for each entry, in h.

Q: GET /values?readout=total protein half-life in vivo&item= MIVLPRRLSDEVADRVRALIDEKNLEAGMKLPAERQLAMQLGVSRNSLREALAKLVSEGVLLSRRGGGTFIRWRHDTWSEQNIVQPLKTLMADDPDYSFDILEARYAIEASTAWHAAMRATPGDKEKIQLCFEATLSEDPDIASQADVRFHLAIAEASHNIVLLQTMRGFFDVLQSSVKHSRQRMYLVPPVFSQLTEQHQAVIDAIFAGDADGARKAMMAHLSFVHTTMKRFDEDQARHARITRLPGEHNEHSREKNA [P0ACL7]
Result: 2.72

Q: Queued: `MVTINNARKILQRVDTLPLYLHAYAFHLNMRLERVLPADLLDIASENNLRGVKIHVLDGERFSLGNMDDKELSAFGDKARRLNLDIHIETSASDKASIDEAVAIALKTGASSVRFYPRYEGNLRDVLSIIANDIAYVRETYQDSGLTFTIEQHEDLKSHELVSLVKESEMESLSLLFDFANMINANEHPIDALKTMAPHITQVHIKDALIVKEPGGLGHKACISGQGDMPFKALLTHLICLGDDEPQVTAYGLEEEVDYYAPAFRFEDEDDNPWIPYRQMSETPLPENHLLDARLRKEKEDAINQINHVRNVLQQIKQEANHLLNH`
Result: 2.09

Q: Queued: `MGLPPLSKIPLILRPQAWLHRRHYGEVLSPIRWWGRIPFIFYLVSMFVGWLERKRSPLDPVVRSLVSARIAQMCLCEFCVDITSMKVAERTGSSDKLLAVADWRQSPLFSDEERLALEYAEAASVTPPTVDDALRTRLAAHFDAQALTELTALIGLQNLSARFNSAMDIPAQGLCRIPEKRS`
Result: 6.4

Give one value of total protein half-life in vivo per listed sequence.
1. MKLDEIARLAGVSRTTASYVINGKAKQYRVSDKTVEKVMAVVREHNYHPNAVAAGLRAGRTRSIGLVIPDLENTSYTRIANYLERQARQRGYQLLIACSEDQPDNEMRCIEHLLQRQVDAIIVSTSLPPEHPFYQRWANDPFPIVALDRALDREHFTSVVGADQDDAEMLAEELRKFPAETVLYLGALPELSVSFLREQGFRTAWKDDPREVHFLYANSYEREAAAQLFEKWLETHPMPQALFTTSFALLQGVMDVTLRRDGKLPSDLAIATFGDNELLDFLQCPVLAVAQRHRDVAERVLEIVLASLDEPRKPKPGLTRIKRNLYRRGVLSRS [P0ACP1]
2. MKLTTHHLRTGAALLLAGILLAGCDQSSSDAKHIKVGVINGAEQDVAEVAKKVAKEKYGLDVELVGFSGSLLPNDATNHGELDANVFQHRPFLEQDNQAHGYKLVAVGNTFVFPMAGYSKKIKTVAQIKEGATVAIPNDPTNLGRALLLLQKEKLITLKEGKGLLPTALDITDNPRHLQIMELEGAQLPRVLDDPKVDVAIISTTYIQQTGLSPVHDSVFIEDKNSPYVNILVAREDNKNAENVKEFLQSYQSPEVAKAAETIFNGGAVPGW
3. MTHVCSVILIRRSFDIYHEQQKISLHNESILLLEKNLADDFAFCSPDTRRLDIDELTVCHYLQNIRQLPRNLGLHSKDRLLINQSPPMPLVTAIFDSFNESGVNSPILSNMLYLSCLSMFSHKKELIPLLFNSISTVSGKVERLISFDIAKRWYLRDIAERMYTSESLIKKKLQDENTCFSKILLASRMSMARRLLELRQIPLHTIAEKCGYSSTSYFINTFRQYYGVTPHQFAQHSPGTFS
4. MKLVGSYTSPFVRKLSILLLEKGITFEFINELPYNADNGVAQFNPLGKVPVLVTEEGECWFDSPIIAEYIELMNVAPAMLPRDPLESLRVRKIEALADGIMDAGLVSVREQARPAAQQSEDELLRQREKINRSLDVLEGYLVDGTLKTDTVNLATIAIACAVGYLNFRRVAPGWCVDRPHLVKLVENLFSRESFARTEPPKA [P0ACA1]
5. MHEITLCQRALELIEQQAAKHGAKRVTGVWLKIGAFSCVETSSLAFCFDLVCRGSVAEGCKLHLEEQEAECWCETCQQYVTLLTQRVRRCPQCHGDMLQIVADDGLQIRRIEIDQE [P0A700]
6. MKLISNDLRDGDKLPHRHVFNGMGYDGDNISPHLAWDDVPAGTKSFVVTCYDPDAPTGSGWWHWVVVNLPADTRVLPQGFGSGLVAMPDGVLQTRTDFGKTGYDGAAPPKGETHRYIFTVHALDIERIDVDEGASGAMVGFNVHFHSLASASITAMFS

Result:
1: 5.37; 2: 6.82; 3: 1.51; 4: 3.78; 5: 2.12; 6: 5.59

Give one value of total protein half-life in vivo per listed sequence.
1. MIDFGNFYSLIAKNHLSHWLETLPAQIANWQREQQHGLFKQWSNAVEFLPEIKPYRLDLLHSVTAESEEPLSAGQIKRIETLMRNLMPWRKGPFSLYGVNIDTEWRSDWKWDRVLPHLSDLTGRTILDVGCGSGYHMWRMIGAGAHLAVGIDPTQLFLCQFEAVRKLLGNDQRAHLLPLGIEQLPALKAFDTVFSMGVLYHRRSPLEHLWQLKDQLVNEGELVLETLVIDGDENTVLVPGDRYAQMRNVYFIPSALALKNWLKKCGFVDIRIADVSVTTTEEQRRTEWMVTESLADFLDPHDPGKTVEGYPAPKRAVLIARKP
2. MNISDVAKITGLTSKAIRFYEEKGLVTPPMRSENGYRTYTQQHLNELTLLRQARQVGFNLEESGELVNLFNDPQRHSADVKRRTLEKVAEIERHIEELQSMRDQLLALANACPGDDSADCPIIENLSGCCHHRAG [P0A9G4]

Result:
4.89
1.45
